Attribution: ChEMBL document CHEMBL3108703

target: CDK2/Cyclin A2 (Homo sapiens)
experiment-summary: Inhibition of CDK2/Cyclin A (unknown origin)
test-readout: log10 of IC50 (log10 of the value in µM)
Base-10 log of IC50, unit µM.

# returns recorded log10 of IC50 (system: CDK2/Cyclin A2 (Homo sapiens)) for CC(C)c1nc2c(OCC3CCCCC3)nc(N)nc2[nH]1
1.44

Field entry: Nc1nc(OCC2CCCCC2)c2nc(-c3ccccc3Cl)[nH]c2n1
1.23

Here is the next compound: Cc1nc2c(OCC3CCCCC3)nc(N)nc2[nH]1
1.65

Others:
// lookup log10 of IC50 | system=CDK2/Cyclin A2 (Homo sapiens) | key= Cc1c(O)cccc1-c1nc2c(OCC3CCCCC3)nc(N)nc2[nH]1
1.37

What would you report for Cc1c(-c2nc3c(OCC4CCCCC4)nc(N)nc3[nH]2)cccc1S(N)(=O)=O ?
-0.29

CCc1nc2c(OCC3CCCCC3)nc(N)nc2[nH]1 ?
1.48

What do we get for Nc1nc(OCC2CCCCC2)c2nc(-c3cccc(S(N)(=O)=O)c3)[nH]c2n1 ?
0.94

What do you get for Cc1c(C(N)=O)cccc1-c1nc2c(OCC3CCCCC3)nc(N)nc2[nH]1 ?
1.60

What do we get for Cc1ccccc1-c1nc2c(OCC3CCCCC3)nc(N)nc2[nH]1 ?
1.26
